// reported TGI for each item listed
tested on: IGROV1 ovarian; assay: NCI tumour cell line growth inhibition, 48 h

Worked examples, 6 compounds total:
- compound: "COc1ccc2c(c1)CC[C@@H]1[C@@H]2CC[C@]2(C)C(c3ccco3)=C(C=O)C[C@@H]12"
  target_system: "IGROV1 ovarian"
  TGI: "78 µM"
- compound: "N#CC1=C(N)OC(c2ccc([N+](=O)[O-])cc2)C1(C#N)C#N (configuration not stated)"
  target_system: "IGROV1 ovarian"
  TGI: "31.1 µM"
- compound: "CC(C)NC(=O)OCCN=C1c2ccccc2CCc2ccccc21"
  target_system: "IGROV1 ovarian"
  TGI: "> 100 µM"
- compound: "Cc1ccccc1C(C#N)C(=O)C(=O)Nc1cccc(Cl)c1 (configuration not stated)"
  target_system: "IGROV1 ovarian"
  TGI: "> 100 µM"
- compound: "N/N=C1/CCCc2nonc21"
  target_system: "IGROV1 ovarian"
  TGI: "> 100 µM"
- compound: "COC(=O)C1=C(CO)C2C=CC1C2 (configuration not stated)"
  target_system: "IGROV1 ovarian"
  TGI: "> 100 µM"

Query :: GET TGI where system = IGROV1 ovarian and item = OC1CN2CCS[C@H]2C(O)C1O (some centres not stated)
Result :: > 100 µM

Query :: Please report the measured TGI for COc1ccc(-c2ccc(C3CC(c4ccc(Cl)cc4)=NN3)o2)c([N+](=O)[O-])c1 (configuration not stated) tested on IGROV1 ovarian.
Result :: > 100 µM

Query :: Quote TGI with test system IGROV1 ovarian for O=C(/C=C/c1ccco1)CC(=O)/C=C/c1ccco1
Result :: > 31.6 µM

Query :: Look up and report measured TGI (IGROV1 ovarian) for the following compound: COc1cc(/C=C2\COc3ccc(O)c(O)c3C2=O)cc(OC)c1
Result :: 5.22 µM
